- Test system: oat, wild (wild oat Avena fatua)
- TEST: Test C postemergence, plant response rating
- Type: in vivo
- DETAILS: 62 g ai/ha, scale 0 to 100 (0 no effect, 100 complete control)
Exercise: for every item that follows, state its recorded Oat, Wild plant response rating.

Name the recorded Oat, Wild plant response rating of the item N#Cc1cccc(Oc2ncc(Cl)cn2)c1CCCC(F)(F)F in your answer.
5

Name the recorded Oat, Wild plant response rating of the item O=C(CCCC(F)(F)F)c1c(Oc2ncc(Cl)cn2)cccc1C(F)(F)F in your answer.
15

Name the recorded Oat, Wild plant response rating of the item O=C(OCC(F)(F)F)c1c(Br)cccc1Oc1ncc(Cl)cn1 in your answer.
0

Name the recorded Oat, Wild plant response rating of the item O=C(CCC(F)(F)C(F)(F)F)c1c(Br)cccc1Oc1ncc(Cl)cn1 in your answer.
45

Name the recorded Oat, Wild plant response rating of the item CCCC(=O)c1c(Br)cccc1Oc1ncc(Cl)cn1 in your answer.
40

Name the recorded Oat, Wild plant response rating of the item O=C(CCCC(F)(F)F)c1c(Cl)cccc1Oc1ncc(Cl)cn1 in your answer.
10

Name the recorded Oat, Wild plant response rating of the item FC(F)(F)CCCc1c(Br)cccc1Oc1ncc(Cl)cn1 in your answer.
40

Name the recorded Oat, Wild plant response rating of the item CCCC(=O)c1c(Oc2ncc(Cl)cn2)cccc1C(F)(F)F in your answer.
10
